Test system: HMC 1-8 low-A1 cells, caspase-3/7 luminescence, 3 h
ASSAY_PROTOCOL: caspase activation in low-A1 HMC 1-8 cells, dose response, counter-screen for A1 inhibitor project, cell-based, caspase luminescence (AID 449755)
Results filed as inconclusive are left out. The source made the active and inactive calls.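 Rule for the calls: active = compounds raising caspase signal whose fitted AC50 is at most ten times the top tested dose; inconclusive = flat fit with 30 to 70% activity, or failed fit; inactive = the rest.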
Output constraint: value belongs to YES (active), NO (inactive)

// below: answered molecules
COc1cc2ncnc(NCc3ccc(F)cc3)c2cc1OC : NO
CC(=O)Nc1ncnc2c1c(-c1ccc(Cl)cc1)nn2C(C)(C)C : NO
Cc1cc(C)n(-c2nc(Nc3ccccc3C)nc(-n3nc(C)cc3C)n2)n1 : NO
CCOc1ccc(NCc2cccn2-c2nnc(N3CCC(C(=O)NCCCN4CC(C)CC(C)C4)CC3)s2)cc1 (stereo not given) : NO
O=C(N=Nc1c(O)[nH]c2ccc([N+](=O)[O-])cc12)c1cc(-c2ccccc2Cl)nc2ccccc12 : NO

Query string: Test call for this molecule, please: `Cc1ccc(C(=O)COC(=O)c2ccc3c(c2)C(=O)N(c2cccc4ncccc24)C3=O)cc1`
Result string: YES

Query string: Answer briefly: the call reported for `Cc1cc(NC(=O)CSc2nc3cc(Cl)ccc3c(=O)n2Cc2ccco2)no1` in this assay.
Result string: NO
